# assay_name: Time of maximum concentration of compound in dog plasma.
# Type: ADME, organism-based, Canis lupus familiaris
Where a SMILES comes first, the peptide text is derived from it. The star is where a group is joined. CF3 = FC(F)(F)*; Moc = COC(=O)*
readout_type: Tmax (min)

{"compound": "COc1ccc(C(=O)N[C@H](C(=O)N2CCC[C@H]2C(=O)N[C@H](C(=O)C(F)(F)F)C(C)C)C(C)C)cc1 (stereo in doubt; 1k)", "observed": 30}
{"compound": "COC(=O)N[C@H](C(=O)N1CCC[C@H]1C(=O)N[C@H](C(=O)C(F)(F)F)C(C)C)C(C)C (Moc-Val-Pro-Val-CF3)", "observed": 19.8}

====

# target_desc: Neutrophil elastase (Homo sapiens, UniProt P08246)
# assay_name: Binding affinity for human leukocyte elastase
Where a SMILES comes first, the peptide text is derived from it. The star is where a group is joined. CF3 = FC(F)(F)*; Moc = COC(=O)*
Items are presented alongside their recorded Ki.

{"molecule": "COC(=O)c1ccc2oc(C(=O)[C@@H](NC(=O)[C@@H]3CCCN3C(=O)[C@@H](NC(=O)Oc3ccccc3)C(C)C)C(C)C)nc2c1", "Ki, nM": 0.64}
{"molecule": "CC(C)[C@H](NC(=O)[C@@H]1CCCN1C(=O)[C@@H](NC(=O)OCc1ccccc1)C(C)C)C(=O)c1nc2ccccc2o1", "Ki, nM": 4.7}
{"molecule": "COc1ccc(C(=O)N[C@H](C(=O)N2CCC[C@H]2C(=O)N[C@H](C(=O)C(F)(F)C(=O)NCc2ccccn2)C(C)C)C(C)C)cc1", "Ki, nM": 3.1}
{"molecule": "COC(=O)N[C@H](C(=O)N1CCC[C@H]1C(=O)N[C@H](C(=O)C(F)(F)F)C(C)C)C(C)C (Moc-Val-Pro-Val-CF3)", "Ki, nM": 13}

====

# target_desc: Neutrophil elastase (Homo sapiens, UniProt P08246)
# Sequence (P08246 whole entry): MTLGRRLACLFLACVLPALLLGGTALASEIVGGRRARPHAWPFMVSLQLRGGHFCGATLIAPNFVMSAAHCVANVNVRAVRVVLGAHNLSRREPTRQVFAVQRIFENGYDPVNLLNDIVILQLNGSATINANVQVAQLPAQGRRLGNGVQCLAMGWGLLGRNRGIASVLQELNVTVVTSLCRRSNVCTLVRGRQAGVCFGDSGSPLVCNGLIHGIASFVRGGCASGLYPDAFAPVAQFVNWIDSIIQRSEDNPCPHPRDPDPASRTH
# assay_name: Binding affinity for human leukocyte elastase

{"structure_smiles_string": "COC(=O)c1ccc2oc(C(=O)[C@@H](NC(=O)[C@@H]3CCCN3C(=O)[C@@H](NC(=O)c3ccc(OC)cc3)C(C)C)C(C)C)nc2c1", "target_desc": "Neutrophil elastase (Homo sapiens, UniProt P08246)", "Ki [nM]": 0.65}
{"structure_smiles_string": "CC(C)COC(=O)N[C@H](C(=O)N1CCC[C@H]1C(=O)N[C@H](C(=O)C(F)(F)F)C(C)C)C(C)C", "target_desc": "Neutrophil elastase (Homo sapiens, UniProt P08246)", "Ki [nM]": 20}
{"structure_smiles_string": "CCCCOC(=O)NCC(F)(F)C(=O)[C@@H](NC(=O)[C@@H]1CCCN1C(=O)[C@@H](NC(=O)Oc1ccccc1)C(C)C)C(C)C", "target_desc": "Neutrophil elastase (Homo sapiens, UniProt P08246)", "Ki [nM]": 0.35}
{"structure_smiles_string": "COc1ccc(C(=O)N[C@H](C(=O)N2CCC[C@H]2C(=O)N[C@@H](C(=O)C(F)(F)C(=O)NCc2ccccn2)C(C)C)C(C)C)cc1", "target_desc": "Neutrophil elastase (Homo sapiens, UniProt P08246)", "Ki [nM]": 58}
